Ki tested on Adenosine receptor A1 (Rattus norvegicus): recorded values
Sequence (P25099 whole entry): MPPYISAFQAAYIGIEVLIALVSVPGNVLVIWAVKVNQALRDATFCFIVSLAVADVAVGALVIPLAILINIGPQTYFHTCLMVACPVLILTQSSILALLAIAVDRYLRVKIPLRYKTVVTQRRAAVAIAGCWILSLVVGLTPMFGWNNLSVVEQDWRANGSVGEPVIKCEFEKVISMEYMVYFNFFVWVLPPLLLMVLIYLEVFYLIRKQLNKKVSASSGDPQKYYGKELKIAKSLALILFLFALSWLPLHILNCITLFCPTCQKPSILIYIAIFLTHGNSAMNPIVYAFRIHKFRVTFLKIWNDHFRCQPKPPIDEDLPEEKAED
Measured Metric: Ki (nM)

Completed entries (count: 4):
molecule="OC[C@H]1OC(n2cnc3c(NCC4c5ccccc5-c5ccccc54)nc(Nc4ccccc4)nc32)[C@H](O)[C@@H]1O (stereo partly drawn)" study_system="Adenosine receptor A1 (Rattus norvegicus)" readout_number=8900
molecule="OC[C@H]1OC(n2cnc3c(NN4CCCC4)nc(Nc4ccccc4)nc32)[C@H](O)[C@@H]1O (stereo partly drawn)" study_system="Adenosine receptor A1 (Rattus norvegicus)" readout_number=18400
molecule="COc1ccc(-c2nc(N)c3ncn(C4O[C@H](CO)[C@@H](O)[C@H]4O)c3n2)cc1 (stereo partly drawn)" study_system="Adenosine receptor A1 (Rattus norvegicus)" readout_number=1320
molecule="OC[C@H]1OC(n2cnc3c(NCCc4ccccc4)nc(NCCc4ccccc4)nc32)[C@H](O)[C@@H]1O (stereo partly drawn)" study_system="Adenosine receptor A1 (Rattus norvegicus)" readout_number=1620

(a) OC[C@H]1OC(n2cnc3c(NCc4cccc5ccccc45)nc(Nc4ccccc4)nc32)[C@H](O)[C@@H]1O (stereo partly drawn)
(b) Nc1nc(Sc2ccccc2)nc2c1ncn2C1O[C@H](CO)[C@@H](O)[C@H]1O (stereo partly drawn)
(c) Nc1nc(NC2CCCC2)c2ncn(C3O[C@H](CO)[C@@H](O)[C@H]3O)c2n1 (stereo partly drawn)
(d) OC[C@H]1OC(n2cnc3c(NC4CCCC4)nc(Sc4ccccc4)nc32)[C@H](O)[C@@H]1O (stereo partly drawn)
Input: Arrange by Ki, high to low. API: response body holds the labels in the requested order.
Output: b, a, d, c
(b: 2200 nM, a: 560 nM, d: 37 nM, c: 8.3 nM)

----------
Target: Adenosine A2 receptor (Rattus norvegicus, UniProt P29276+P30543)
Assay: Inhibition of [3H]NECA binding to Adenosine A2 receptor of rat striatal membranes
Assay type: cell membranes, Membrane
Measured Metric: Ki (µM)

compound="Nc1nc(Sc2ccccc2)nc2c1ncn2C1O[C@H](CO)[C@@H](O)[C@H]1O (some centres undefined)" readout_number=2

(1) Nc1nc(S(=O)(=O)c2ccccc2)nc2c1ncn2C1O[C@H](CO)[C@@H](O)[C@H]1O (some centres undefined)
(2) COc1ccc(-c2nc(N)c3ncn(C4O[C@H](CO)[C@@H](O)[C@H]4O)c3n2)cc1 (some centres undefined)
(3) Nc1nc(=O)[nH]c2c1ncn2[C@@H]1O[C@H](CO)[C@@H](O)[C@H]1O [ISOGUANOSINE]
Input: Arrange by Ki, high to low. API: response body holds the labels in the requested order.
Output: 1, 2, 3
(1: 1.23 µM, 2: 0.6 µM, 3: 0.33 µM)

----------
Ki tested on Adenosine A2 receptor (Rattus norvegicus, UniProt P29276+P30543): recorded values
Measured Metric: Ki (nM)

(a) Nc1nc(NC2CCCC2)c2ncn(C3O[C@H](CO)[C@@H](O)[C@H]3O)c2n1 (stereo partly drawn)
(b) CC(O)CNc1ncnc2c1ncn2C1O[C@H](CO)[C@@H](O)[C@H]1O (stereo partly drawn)
Input: Which has the higher Ki, a or b ? Selection: enter the item's label.
Output: b
(b: 9300 nM, a: 6100 nM)

(A) OC[C@H]1OC(n2cnc3c(NN4CCCC4)nc(Nc4ccccc4)nc32)[C@H](O)[C@@H]1O (stereo partly drawn)
(B) COc1cc(OC)cc(C(CNc2nc(Nc3ccccc3)nc3c2ncn3C2O[C@H](CO)[C@@H](O)[C@H]2O)c2ccccc2)c1 (stereo partly drawn)
(C) O=S(=O)(c1ccccc1)c1nc(NC2CCCC2)c2ncn(C3O[C@H](CO)[C@@H](O)[C@H]3O)c2n1 (stereo partly drawn)
Input: Arrange by Ki, high to low. API: response body holds the labels in the requested order.
Output: A, C, B

(P) OC[C@H]1OC(n2cnc3c(NC4CCCCC4)nc(Nc4ccccc4)nc32)[C@H](O)[C@@H]1O (stereo partly drawn)
(Q) OC[C@H]1OC(n2cnc3c(NCc4cccc5ccccc45)nc(F)nc32)[C@H](O)[C@@H]1O (stereo partly drawn)
(R) OC[C@H]1OC(n2cnc3c(NCc4cccc5ccccc45)nc(Nc4ccccc4)nc32)[C@H](O)[C@@H]1O (stereo partly drawn)
(S) OC[C@H]1OC(n2cnc3c(NC4CC4)nc(Nc4ccccc4)nc32)[C@H](O)[C@@H]1O (stereo partly drawn)
Input: Arrange by Ki, high to low. API: response body holds the labels in the requested order.
Output: S, P, R, Q

(a) COc1cc(OC)cc(C(CNc2nc(Nc3ccccc3)nc3c2ncn3C2O[C@H](CO)[C@@H](O)[C@H]2O)c2ccccc2C)c1 (stereo partly drawn)
(b) OC[C@H]1OC(n2cnc3c(NCc4ccccc4)nc(Nc4ccccc4)nc32)[C@H](O)[C@@H]1O (stereo partly drawn)
Input: Which has the higher Ki, a or b ? Selection: enter the item's label.
Output: b

(A) O=S(=O)(c1ccccc1)c1nc(NCc2cccc3ccccc23)c2ncn(C3O[C@H](CO)[C@@H](O)[C@H]3O)c2n1 (stereo partly drawn)
(B) OC[C@H]1OC(n2cnc3c(NC4CCCCC4)nc(Sc4ccccc4)nc32)[C@H](O)[C@@H]1O (stereo partly drawn)
Input: Please compare: A and B . Report which one has the smaller Ki value. Selection: enter the item's label.
Output: A
(A: 270 nM, B: 6700 nM)
